Molecular target: Nuclear factor erythroid 2-related factor 2 (Mus musculus)
Experiment: Activation of NRF2 in C57BL/6 mouse bone marrow cells assessed as increase in Hmox1 gene expression exposed to 4% oxygen at 2 uM incubated for 4 hrs by qRT-PCR analysis
Type: cell-based
Conditions: Bone marrow cell, filed as activator
The source made the active and inactive calls. The calls are words filed in the database; no cut-off is given here.
Assay Endpoint: Activity

CCCCCCCC/C=C(\CCCCCCCC(=O)O)[N+](=O)[O-]
Active
CCCCCCCC/C(=C\CCCCCCCC(=O)O)[N+](=O)[O-]
Active
